Target: Voltage-gated inwardly rectifying potassium channel KCNH2 (Homo sapiens)
Sequence (Q12809 whole entry): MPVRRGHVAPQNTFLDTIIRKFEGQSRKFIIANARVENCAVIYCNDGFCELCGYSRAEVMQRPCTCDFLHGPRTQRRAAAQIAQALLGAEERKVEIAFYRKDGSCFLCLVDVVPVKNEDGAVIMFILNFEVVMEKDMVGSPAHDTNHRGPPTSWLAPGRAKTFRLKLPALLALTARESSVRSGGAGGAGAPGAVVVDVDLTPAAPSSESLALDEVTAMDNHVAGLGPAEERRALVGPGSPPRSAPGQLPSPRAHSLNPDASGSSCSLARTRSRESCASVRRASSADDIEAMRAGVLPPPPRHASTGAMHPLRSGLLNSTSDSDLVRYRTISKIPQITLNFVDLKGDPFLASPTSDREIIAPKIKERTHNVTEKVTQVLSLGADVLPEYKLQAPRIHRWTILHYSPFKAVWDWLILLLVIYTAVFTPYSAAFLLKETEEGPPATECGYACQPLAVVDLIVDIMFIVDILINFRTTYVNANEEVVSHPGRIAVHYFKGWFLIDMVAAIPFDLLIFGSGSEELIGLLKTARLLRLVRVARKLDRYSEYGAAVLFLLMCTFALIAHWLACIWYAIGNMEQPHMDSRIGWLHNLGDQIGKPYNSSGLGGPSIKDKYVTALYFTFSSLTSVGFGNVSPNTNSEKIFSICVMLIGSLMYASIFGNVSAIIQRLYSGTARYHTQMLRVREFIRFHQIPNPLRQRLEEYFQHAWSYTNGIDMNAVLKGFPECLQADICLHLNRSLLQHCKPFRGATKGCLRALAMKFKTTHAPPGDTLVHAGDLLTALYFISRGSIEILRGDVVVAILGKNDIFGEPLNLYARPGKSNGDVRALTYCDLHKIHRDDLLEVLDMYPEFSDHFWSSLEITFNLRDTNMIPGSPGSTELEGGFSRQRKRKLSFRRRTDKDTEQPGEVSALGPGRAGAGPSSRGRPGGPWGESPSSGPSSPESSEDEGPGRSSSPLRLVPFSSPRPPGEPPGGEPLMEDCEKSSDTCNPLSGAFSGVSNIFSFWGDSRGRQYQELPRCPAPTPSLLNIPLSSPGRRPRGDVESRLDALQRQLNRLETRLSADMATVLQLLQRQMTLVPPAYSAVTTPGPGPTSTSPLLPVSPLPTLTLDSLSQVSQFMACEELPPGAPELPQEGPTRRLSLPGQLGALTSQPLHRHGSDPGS
Assay: Displacement of [35S]-MK-499 from hERG expressed in HEK293 cells […]
Measured IC50, listed per entry.
Parameter measured: IC50 (µM)

>>> print(df.to_string())
                                    molecule  parameter_measured  inequality_symbol  assay_result
 0  Cn1cc(-c2cc(C(N)=O)nc3cc(CN4CCNC(C(F)(F)F)C4)ccc23)cn1 (racemic)                IC50                  >            20
 1  NC(=O)c1cc(-c2ccc(F)cc2)c2ccc(CNCC(F)(F)F)cc2n1                IC50                  =          10.2
 2  Cn1cc(Cc2ccc3c(-c4cnn(C)c4)cc(C(N)=O)nc3c2)cn1                IC50                  >            60
 3  NC(=O)c1cc(-c2ccc(F)cc2)c2ccc(CN3CCOC3=O)cc2n1                IC50                  =            14
 4  Cc1cc(NCc2ccc3c(-c4ccc(F)cc4)cc(C(N)=O)nc3c2)no1                IC50                  =           3.3
 5  CC1CC=C(c2cc(C(N)=O)nc3cc(CN4C(=O)CCC4=O)ccc23)CC1 (racemic)                IC50                  =            27
 6  Cn1cc(-c2cc(C(N)=O)nc3cc(CN4CCOC(C5CC5)C4)ccc23)cn1 (racemic)                IC50                  =            51
 7  Cc1ncc(-c2cc(C(N)=O)nc3cc(CN4C(=O)CCC4=O)ccc23)s1                IC50                  >            60
 8  NC(=O)c1cc(-c2ccc(F)cc2)c2ccc(CN3CCNC(C(F)(F)F)C3)cc2n1 (racemic)                IC50                  =          11.2
 9  COC1CC=C(c2cc(C(N)=O)nc3cc(CN4C(=O)CCC4=O)ccc23)CC1 (racemic)                IC50                  >            60
10  CCn1cc(-c2cc(C(N)=O)nc3cc(CN4C(=O)CCC4=O)ccc23)cn1                IC50                  =            27
11  NC(=O)c1cc(-c2ccc(F)cc2)c2ccc(CN3CCOC(C(F)(F)F)C3)cc2n1 (racemic)                IC50                  =           5.5
12  CC1CN(Cc2ccc3c(-c4ccc(F)cc4)cc(C(N)=O)nc3c2)CCO1 (racemic)                IC50                  =           5.5
13  CC(C)C1CN(Cc2ccc3c(-c4cnn(C)c4)cc(C(N)=O)nc3c2)CCO1 (racemic)                IC50                  =            23
14  Cc1ncc(NCc2ccc3c(-c4ccc(F)cc4)cc(C(N)=O)nc3c2)cn1                IC50                  =           6.2
15  Cn1cc(-c2cc(C(N)=O)nc3cc(CN4CCOC(C(F)(F)F)C4)ccc23)cn1 (racemic)                IC50                  =            19
16  Cn1ccc(CCc2ccc3c(-c4ccc(F)cc4)cc(C(N)=O)nc3c2)n1                IC50                  =           2.9
17  CC1CN(Cc2ccc3c(-c4cnn(C)c4)cc(C(N)=O)nc3c2)CCO1 (racemic)                IC50                  >            60
18  C[C@@H]1CN(Cc2ccc3c(-c4cnn(C)c4)cc(C(N)=O)nc3c2)C[C@H](C(F)(F)F)O1                IC50                  =            22

----------
Assay: Solubility of the compound in SGF buffer
Format: physicochemical
Parameter measured: solubility (µg/mL)

In [3]: df
Out[3]:
                               smiles_entry  parameter_measured  assay_result
0  C[C@@H]1CN(Cc2ccc3c(-c4cnn(C)c4)cc(C(N)=O)nc3c2)C[C@H](C(F)(F)F)O1          solubility          4100

----------
Test: Effective half life in rat at 1 mg/kg, iv
Assay type: ADME, organism-based
Conditions: in vivo, read-out: t1/2eff (converted)
Parameter measured: half-life (h)

>>> print(df.to_string())
                               smiles_entry  assay_result
0  C[C@@H]1CN(Cc2ccc3c(-c4cnn(C)c4)cc(C(N)=O)nc3c2)C[C@H](C(F)(F)F)O1           1.8

----------
Molecular target: Metabotropic glutamate receptor 8 (Homo sapiens)
Sequence (O00222 whole entry): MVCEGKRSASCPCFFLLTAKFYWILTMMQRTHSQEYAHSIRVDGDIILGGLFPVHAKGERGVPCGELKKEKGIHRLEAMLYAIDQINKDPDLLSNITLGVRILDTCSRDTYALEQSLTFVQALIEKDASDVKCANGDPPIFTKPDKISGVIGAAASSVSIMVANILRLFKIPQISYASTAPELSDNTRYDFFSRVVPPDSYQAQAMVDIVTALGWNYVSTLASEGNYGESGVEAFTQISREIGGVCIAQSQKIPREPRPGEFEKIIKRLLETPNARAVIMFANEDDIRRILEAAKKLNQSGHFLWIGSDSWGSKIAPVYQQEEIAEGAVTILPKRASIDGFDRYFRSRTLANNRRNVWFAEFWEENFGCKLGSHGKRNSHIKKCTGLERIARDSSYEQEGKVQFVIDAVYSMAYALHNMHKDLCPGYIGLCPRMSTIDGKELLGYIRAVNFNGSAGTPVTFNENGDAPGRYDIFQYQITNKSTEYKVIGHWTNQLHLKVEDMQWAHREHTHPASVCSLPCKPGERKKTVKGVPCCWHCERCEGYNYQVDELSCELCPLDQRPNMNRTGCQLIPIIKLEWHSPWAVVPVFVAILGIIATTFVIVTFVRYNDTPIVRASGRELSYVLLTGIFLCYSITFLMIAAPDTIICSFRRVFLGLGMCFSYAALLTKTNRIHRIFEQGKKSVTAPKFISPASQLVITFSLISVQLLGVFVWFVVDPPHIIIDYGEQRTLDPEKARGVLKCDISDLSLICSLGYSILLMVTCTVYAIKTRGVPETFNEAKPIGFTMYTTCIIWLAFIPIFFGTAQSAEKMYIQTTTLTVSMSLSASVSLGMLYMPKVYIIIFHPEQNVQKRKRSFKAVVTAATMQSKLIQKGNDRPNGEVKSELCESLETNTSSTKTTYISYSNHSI
Assay: Negative allosteric modulation at mGluR8 receptor (unknown origin) assessed as effect on intracellular calcium flux measured after 5 min by Fluo-4AM dye based FLIPR analysis
pIC50: −log10 of the molar value.
Parameter measured: pIC50

                               smiles_entry  assay_result
0  C[C@@H]1CN(Cc2ccc3c(-c4cnn(C)c4)cc(C(N)=O)nc3c2)C[C@H](C(F)(F)F)O1        < 5.00

----------
Assay: Solubility of the compound in FaSSIF
Type: physicochemical
Parameter measured: solubility (µg/mL)

>>> print(df.to_string())
                               smiles_entry  assay_result
0  C[C@@H]1CN(Cc2ccc3c(-c4cnn(C)c4)cc(C(N)=O)nc3c2)C[C@H](C(F)(F)F)O1           440

----------
Measured Papp, listed per entry.
Assay: Apparent permeability in […] LLC-MDR1 cell
Type: ADME, cell-based
Settings: LLC-PK1
Parameter measured: Papp

>>> print(df.to_string())
                                   compound   assay_result
0  Cc1ccn(-c2cc(C(N)=O)nc3cc(CN4C(=O)CCC4=O)ccc23)n1  30 ×10⁻⁶ cm/s
1  Cc1cc(NCc2ccc3c(-c4ccc(F)cc4)cc(C(N)=O)nc3c2)no1  30 ×10⁻⁶ cm/s
2  Cn1cc(-c2cc(C(N)=O)nc3cc(CN4C(=O)CCC4=O)ccc23)cn1  30 ×10⁻⁶ cm/s
3  CC1CC=C(c2cc(C(N)=O)nc3cc(CN4C(=O)CCC4=O)ccc23)CC1 (racemic)  33 ×10⁻⁶ cm/s
4  Cc1cnn(Cc2ccc3c(-c4ccc(F)cc4)cc(C(N)=O)nc3c2)c1  27 ×10⁻⁶ cm/s
5  Cc1ncc(CCc2ccc3c(-c4cnn(C)c4)cc(C(N)=O)nc3c2)cn1  30 ×10⁻⁶ cm/s
6  CC(C)C1CN(Cc2ccc3c(-c4cnn(C)c4)cc(C(N)=O)nc3c2)CCO1 (racemic)  34 ×10⁻⁶ cm/s

----------
Biological target: Nuclear receptor subfamily 1 group I member 2 (Homo sapiens, UniProt O75469)
Sequence (O75469 whole entry): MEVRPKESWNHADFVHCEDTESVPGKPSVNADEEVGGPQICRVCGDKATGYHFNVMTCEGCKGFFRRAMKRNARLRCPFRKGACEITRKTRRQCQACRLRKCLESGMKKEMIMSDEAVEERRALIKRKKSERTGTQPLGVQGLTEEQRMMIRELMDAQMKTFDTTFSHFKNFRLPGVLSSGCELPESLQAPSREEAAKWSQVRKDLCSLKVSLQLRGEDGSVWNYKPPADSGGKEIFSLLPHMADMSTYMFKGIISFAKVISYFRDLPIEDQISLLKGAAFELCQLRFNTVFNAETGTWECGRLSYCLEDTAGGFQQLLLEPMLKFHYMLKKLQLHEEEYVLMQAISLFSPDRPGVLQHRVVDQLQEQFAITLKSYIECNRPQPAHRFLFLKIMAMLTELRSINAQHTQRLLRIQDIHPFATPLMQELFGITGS
Assay: Agonist activity at PXR (unknown origin)
Measured EC50, listed per entry.
Parameter measured: EC50

                               smiles_entry                            assayed_system  assay_result
0  Cc1cc(NCc2ccc3c(-c4ccc(F)cc4)cc(C(N)=O)nc3c2)no1  Nuclear receptor subfamily 1 group I member 2 (Homo sapiens, UniProt O75469)       > 30 µM
1  Cc1cnn(-c2cc(C(N)=O)nc3cc(CN4C(=O)CCC4=O)ccc23)c1  Nuclear receptor subfamily 1 group I member 2 (Homo sapiens, UniProt O75469)       > 30 µM
2  Cn1cc(Cc2ccc3c(-c4ccc(F)cc4)cc(C(N)=O)nc3c2)cn1  Nuclear receptor subfamily 1 group I member 2 (Homo sapiens, UniProt O75469)       > 30 µM

----------
Biological target: Metabotropic glutamate receptor 2 (Homo sapiens, UniProt Q14416)
Sequence (Q14416 whole entry): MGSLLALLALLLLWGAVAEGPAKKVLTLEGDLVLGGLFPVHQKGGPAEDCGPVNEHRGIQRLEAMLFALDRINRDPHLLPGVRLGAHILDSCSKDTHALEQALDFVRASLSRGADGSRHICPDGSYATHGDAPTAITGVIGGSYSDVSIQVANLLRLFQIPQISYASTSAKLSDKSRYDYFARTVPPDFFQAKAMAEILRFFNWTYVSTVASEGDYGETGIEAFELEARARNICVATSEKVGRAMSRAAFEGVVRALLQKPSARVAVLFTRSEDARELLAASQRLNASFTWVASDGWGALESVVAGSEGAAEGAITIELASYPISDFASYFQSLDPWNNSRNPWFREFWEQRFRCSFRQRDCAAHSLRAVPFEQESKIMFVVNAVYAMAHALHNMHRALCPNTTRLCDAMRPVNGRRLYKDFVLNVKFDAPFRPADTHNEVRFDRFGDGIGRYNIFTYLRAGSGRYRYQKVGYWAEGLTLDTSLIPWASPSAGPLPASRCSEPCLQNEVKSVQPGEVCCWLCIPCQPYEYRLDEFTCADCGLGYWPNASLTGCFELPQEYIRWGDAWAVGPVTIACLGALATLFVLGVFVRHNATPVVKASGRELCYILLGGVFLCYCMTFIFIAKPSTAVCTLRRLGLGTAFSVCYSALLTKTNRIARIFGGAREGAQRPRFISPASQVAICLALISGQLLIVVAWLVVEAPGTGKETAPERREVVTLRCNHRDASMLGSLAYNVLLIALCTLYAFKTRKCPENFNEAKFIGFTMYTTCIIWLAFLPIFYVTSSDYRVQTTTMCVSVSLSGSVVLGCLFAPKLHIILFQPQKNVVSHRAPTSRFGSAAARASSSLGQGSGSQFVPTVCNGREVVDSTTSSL
Test: Negative allosteric modulation at human mGluR2 receptor stably expressed in DHFR null CHO cells co-expressing Galpha16 assessed as effect on intracellular calcium flux measured after 5 min by Fluo-4AM dye based FLIPR analysis
Binary label based on IC50 with cut-off 100 nM: below gives label 1, not below gives label 0.

>>> df
                                   molecule  label_value
0  Cn1cc(-c2cc(C(N)=O)nc3cc(CN4CCOC(C(F)F)C4)ccc23)cn1 (racemic)      label 1
1  CN1CC=C(c2cc(C(N)=O)nc3cc(CN4C(=O)CCC4=O)ccc23)CC1      label 0
2  Cc1ccn(-c2cc(C(N)=O)nc3cc(CN4C(=O)CCC4=O)ccc23)n1      label 0
3  NC(=O)c1cc(-c2ccc(F)cc2)c2ccc(C(N3CCOCC3)C(F)(F)F)cc2n1 (racemic)      label 1
4  Cn1cc(-c2cc(C(N)=O)nc3cc(CN4CCNC(C(F)(F)F)C4)ccc23)cn1 (racemic)      label 0
5  Cn1cc(-c2cc(C(N)=O)nc3cc(CN4CCOC(C5CC5)C4)ccc23)cn1 (racemic)      label 1
